Recorded values, source patent US20250092065A1.

# Tested on: MYB
# assay.notes: HiBiT protein abundance assay, MYB (K562 HiBiT knock-in)
# Assay type: cell-based, human
# experimental.context: HiBiT knock-in K562 cells, 24 hours, top dose 10 μM

molecule	IC50
Cc1cn2cc(-c3nc(C(=O)NC4CCC4)c4cc(N5C[C@@H](C)N[C@@H](C)C5)ccc4n3)cc(F)c2n1 [Compound 779]	< 100 nM
Cc1nc2cc(O)c(-c3ccc4nc([C@@H]5CCNC6(CC6)C5)ccc4n3)cc2o1 (single isomer, unassigned) [Compound 498]	< 100 nM
Cn1cc2cc(-c3ccc4nc(N5CC[C@@H](N)C5)ccc4n3)c(O)c(F)c2n1 (single isomer, unassigned) [Compound 362]	< 100 nM
Cc1cn2nc(-c3ccc4nc(N5CCC(NC(C)(C)C)C5)ccc4n3)cc2c(C)n1 (stereo not drawn) [Compound 187]	100 to 1000 nM
C[C@H]1C[C@@H](c2ccc3nc(-c4cc5cn(C)nc5c(F)c4O)ccc3n2)CCN1 (single isomer, unassigned) [Compound 383]	< 100 nM
Cc1nc2cc(O)c(-c3ccc4nc(N5CC[C@@H](NC(C)C)C5)ccc4n3)cc2o1 [Compound 232]	< 100 nM
Cn1cc2cc(-c3ccc4nc(C5CCNCC5)ccc4n3)cc(F)c2n1 [Compound 185]	1000 to 10000 nM
Cc1nc2cc(O)c(-c3ccc4nc(N5CC[C@@H](N[C@H]6C[C@@H](F)C6)C5)ccc4n3)cc2o1 (stereo in doubt) [Compound 395]	100 to 1000 nM
Cn1cc2cc(-c3ccc4nc(N5CCC(NC67CC(C6)C7)C5)ccc4n3)c(O)cc2n1 (stereo not drawn) [Compound 297]	1000 to 10000 nM
Cn1cc2cc(-c3ccc4nc(C5CCNCC5)ccc4n3)c(O)c(F)c2n1 [Compound 102]	< 100 nM
CC(C)(C)NC1CCN(c2ccc3nc(-c4cc5oc(C6CC6)nc5cc4O)ccc3n2)C1 (stereo not drawn) [Compound 333]	100 to 1000 nM
Cc1c(O)c(-c2ncc3cc(N4C[C@@H](C)N[C@@H](C)C4)ccc3n2)cc2cn(C)nc12 [Compound 525]	< 100 nM
Cn1cc2cc(-c3ccc4nc(N5CC[C@H](N[C@H]6C[C@H](F)C6)C5)ccc4n3)c(O)cc2n1 [Compound 247]	100 to 1000 nM
CC(C)N[C@@H]1CCN(c2ccc3nc(-c4cc5cn(C)nc5cc4O)ccc3n2)C1 [Compound 173]	< 100 nM
Cc1nc2cc(-c3ccc4nc(N5CCC(NC(C)(C)C)C5)ccc4n3)c(O)cc2n1C (stereo not drawn) [Compound 340]	100 to 1000 nM
